Sourced from patent US20260216207A1

- TARGET OF ASSAY: UniProtKB P36888
- Sequence (P36888 27-993): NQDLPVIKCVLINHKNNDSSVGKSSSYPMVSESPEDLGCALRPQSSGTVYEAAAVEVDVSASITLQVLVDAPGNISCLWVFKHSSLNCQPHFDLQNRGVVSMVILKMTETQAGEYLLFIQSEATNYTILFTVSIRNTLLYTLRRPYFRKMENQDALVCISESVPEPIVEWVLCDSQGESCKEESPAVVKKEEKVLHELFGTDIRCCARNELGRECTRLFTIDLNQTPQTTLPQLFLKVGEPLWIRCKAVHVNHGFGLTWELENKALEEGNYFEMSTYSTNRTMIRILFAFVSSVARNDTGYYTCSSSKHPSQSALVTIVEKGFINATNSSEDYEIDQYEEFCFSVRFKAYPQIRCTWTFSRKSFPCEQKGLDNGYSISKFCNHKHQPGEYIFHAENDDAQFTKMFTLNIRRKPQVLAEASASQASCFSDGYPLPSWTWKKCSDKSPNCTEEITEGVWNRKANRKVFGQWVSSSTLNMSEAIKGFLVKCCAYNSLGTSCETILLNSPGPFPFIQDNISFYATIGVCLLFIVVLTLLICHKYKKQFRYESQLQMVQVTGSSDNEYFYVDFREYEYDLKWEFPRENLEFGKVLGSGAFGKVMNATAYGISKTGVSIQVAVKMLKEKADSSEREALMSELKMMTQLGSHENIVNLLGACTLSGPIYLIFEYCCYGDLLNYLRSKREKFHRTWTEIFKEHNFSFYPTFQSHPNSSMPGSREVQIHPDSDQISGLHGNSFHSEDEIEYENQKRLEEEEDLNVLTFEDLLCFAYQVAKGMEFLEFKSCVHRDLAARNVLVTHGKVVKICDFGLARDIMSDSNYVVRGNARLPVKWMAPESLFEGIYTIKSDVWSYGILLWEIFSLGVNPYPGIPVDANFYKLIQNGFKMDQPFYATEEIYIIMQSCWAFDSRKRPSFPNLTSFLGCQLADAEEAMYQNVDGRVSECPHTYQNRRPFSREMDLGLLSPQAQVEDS
- ASSAY PROCEDURE: HTRF KinEASE kinase assay, FLT3 (kinase selectivity)
- Format: biochemical
- EXPERIMENTAL PARAMETERS: HTRF KinEASE kit, 3 duplicate wells; read-out: FLT3 IC50
OBSERVED PROPERTY: IC50 (nM)

SMI: CO[C@@H]1[C@H](N(C)C(=O)CCC(=O)NO)C[C@H]2O[C@]1(C)n1c3ccccc3c3c4c(c5c6ccccc6n2c5c31)C(=O)NC4=O
OBSERVED PROPERTY: IC50
NUMERIC RESULT: 5.3

----------
- TARGET OF ASSAY: PKCε (Homo sapiens)
- Sequence (Q02156 whole entry): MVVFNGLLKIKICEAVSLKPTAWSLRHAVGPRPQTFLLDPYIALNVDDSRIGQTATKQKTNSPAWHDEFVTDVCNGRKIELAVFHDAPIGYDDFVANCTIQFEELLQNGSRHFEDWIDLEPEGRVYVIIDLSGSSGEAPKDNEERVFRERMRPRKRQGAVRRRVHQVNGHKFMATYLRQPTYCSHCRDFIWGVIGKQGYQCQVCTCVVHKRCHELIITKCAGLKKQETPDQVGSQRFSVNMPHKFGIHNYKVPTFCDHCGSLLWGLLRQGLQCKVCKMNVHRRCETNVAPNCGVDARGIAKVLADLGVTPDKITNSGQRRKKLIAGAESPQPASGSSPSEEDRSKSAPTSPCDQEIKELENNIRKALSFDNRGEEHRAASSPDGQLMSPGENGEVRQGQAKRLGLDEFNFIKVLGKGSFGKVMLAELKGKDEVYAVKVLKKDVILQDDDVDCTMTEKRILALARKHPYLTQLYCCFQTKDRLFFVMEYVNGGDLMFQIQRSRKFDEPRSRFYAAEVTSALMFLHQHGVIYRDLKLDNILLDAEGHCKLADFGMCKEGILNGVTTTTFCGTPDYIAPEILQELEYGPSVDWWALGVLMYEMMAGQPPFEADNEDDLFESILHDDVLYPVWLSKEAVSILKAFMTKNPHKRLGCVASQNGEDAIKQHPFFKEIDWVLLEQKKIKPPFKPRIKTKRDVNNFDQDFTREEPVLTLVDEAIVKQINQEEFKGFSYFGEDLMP
- ASSAY PROCEDURE: HTRF KinEASE kinase assay, PKCε (kinase selectivity)
- Assay type: biochemical
pIC50: −log10 of the molar value.

COMPOUND: CN[C@@H]1C[C@H]2O[C@@](C)([C@@H]1OC)n1c3ccccc3c3c4c(c5c6ccccc6n2c5c31)C(=O)NC4=O [Compound 7OSTA, 7-carbonylstaurosporine]
TARGET OF ASSAY: PKCε (Homo sapiens)
pIC50: 8.64

----------
- TARGET OF ASSAY: PKCδ (Homo sapiens, UniProt Q05655)
- Sequence (Q05655 whole entry): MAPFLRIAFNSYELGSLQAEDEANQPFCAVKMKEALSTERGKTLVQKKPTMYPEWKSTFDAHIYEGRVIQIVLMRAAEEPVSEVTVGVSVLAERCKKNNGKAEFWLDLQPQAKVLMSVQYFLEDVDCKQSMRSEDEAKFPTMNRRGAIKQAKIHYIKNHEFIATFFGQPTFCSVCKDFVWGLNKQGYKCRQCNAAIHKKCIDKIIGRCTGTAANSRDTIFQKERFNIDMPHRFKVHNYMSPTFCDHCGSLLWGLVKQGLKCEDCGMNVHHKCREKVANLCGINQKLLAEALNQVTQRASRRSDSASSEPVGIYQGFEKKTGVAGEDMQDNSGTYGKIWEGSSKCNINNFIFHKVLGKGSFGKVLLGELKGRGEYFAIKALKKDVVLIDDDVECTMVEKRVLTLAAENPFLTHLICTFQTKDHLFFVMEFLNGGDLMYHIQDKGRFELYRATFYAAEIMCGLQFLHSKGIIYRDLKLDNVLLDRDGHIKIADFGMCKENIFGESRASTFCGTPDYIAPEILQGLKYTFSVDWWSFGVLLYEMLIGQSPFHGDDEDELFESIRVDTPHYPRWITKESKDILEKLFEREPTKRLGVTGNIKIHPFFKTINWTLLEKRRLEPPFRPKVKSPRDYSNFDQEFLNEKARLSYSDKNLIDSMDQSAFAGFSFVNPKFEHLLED
- ASSAY PROCEDURE: HTRF KinEASE kinase assay, PKCδ (kinase selectivity)
- Type: biochemical
- EXPERIMENTAL PARAMETERS: HTRF KinEASE kit, 3 duplicate wells; read-out: PKCδ IC50
pIC50: −log10 of the molar value.
OBSERVED PROPERTY: pIC50

COMPOUND: CO[C@@H]1[C@H](N(C)C(=O)CCC(=O)NO)C[C@H]2O[C@]1(C)n1c3ccccc3c3c4c(c5c6ccccc6n2c5c31)C(=O)NC4=O [Compound 17]
TARGET OF ASSAY: PKCδ (Homo sapiens, UniProt Q05655)
OBSERVED PROPERTY: pIC50
NUMERIC RESULT: 7.98
